All values here come from paper PMC10572522.

- System: E. faecium (NTCC12697) biofilm
- Assay type: cell-based, Enterococcus faecium
- Particulars: eradication rate greater than 99.9%
Residues, ends and D or L forms follow the SMILES beside them.
Quantity Kind: MBEC

CC[C@H](C)[C@H](NC(=O)[C@H](CCCNC(=N)N)NC(=O)[C@@H]1CCCN1C(=O)[C@H](CC(C)C)NC(=O)[C@@H](N)CCCNC(=N)N)C(=O)N[C@@H](CC(C)C)C(=O)N[C@@H](CCCNC(=N)N)C(=O)N[C@@H](CCCCN)C(=O)N[C@H](C(=O)N[C@H](C(=O)N[C@@H](CCCNC(=N)N)C(=O)N[C@@H](C)C(=O)N[C@@H](CC(C)C)C(N)=O)C(C)C)[C@@H](C)CC [Crabrolin-FR, RLPRILRKIVRAL-NH2] (H-RLPRILRKIVRAL-NH2) ... > 512 µM

Which MBEC value belongs to CC[C@H](C)[C@H](NC(=O)[C@H](CCCNC(=N)N)NC(=O)[C@@H]1CCCN1C(=O)[C@H](CC(C)C)NC(=O)[C@@H](N)Cc1ccccc1)C(=O)N[C@@H](CC(C)C)C(=O)N[C@@H](CCCNC(=N)N)C(=O)N[C@@H](CCCCN)C(=O)N[C@H](C(=O)N[C@H](C(=O)N[C@@H](CCCNC(=N)N)C(=O)N[C@@H](C)C(=O)N[C@@H](CC(C)C)C(N)=O)C(C)C)[C@@H](C)CC [Crabrolin-TR, FLPRILRKIVRAL-NH2] (H-FLPRILRKIVRAL-NH2) ?
> 512 µM

* * *

Listed compounds paired with reported MBIC
- Test system: E. faecium (NTCC12697) biofilm
- Assay type: cell-based, Enterococcus faecium
- Particulars: biofilm inhibitory rate more than 90%
Residues, ends and D or L forms follow the SMILES beside them.

CC[C@H](C)[C@H](NC(=O)[C@H](CCCCN)NC(=O)[C@@H]1CCCN1C(=O)[C@H](CC(C)C)NC(=O)[C@@H](N)Cc1ccccc1)C(=O)N[C@@H](CC(C)C)C(=O)N[C@@H](CCCNC(=N)N)C(=O)N[C@@H](CCCCN)C(=O)N[C@H](C(=O)N[C@H](C(=O)N[C@H](C(=O)N[C@@H](C)C(=O)N[C@@H](CC(C)C)C(N)=O)[C@@H](C)O)C(C)C)[C@@H](C)CC [Crabrolin-4K, FLPKILRKIVTAL-NH2] (H-FLPKILRKIVTAL-NH2) ... 16 µM

Which MBIC value belongs to CC[C@H](C)[C@H](NC(=O)[C@H](CC(C)C)NC(=O)[C@@H]1CCCN1C(=O)[C@H](CC(C)C)NC(=O)[C@@H](N)Cc1ccccc1)C(=O)N[C@@H](CC(C)C)C(=O)N[C@@H](CCCNC(=N)N)C(=O)N[C@@H](CCCCN)C(=O)N[C@@H](CCCNC(=N)N)C(=O)N[C@H](C(=O)N[C@H](C(=O)N[C@@H](C)C(=O)N[C@@H](CC(C)C)C(N)=O)[C@@H](C)O)C(C)C [Crabrolin-9R, FLPLILRKRVTAL-NH2] (H-FLPLILRKRVTAL-NH2) ?
>512/>512 µM

Which MBIC value belongs to CC[C@H](C)[C@H](NC(=O)[C@H](CCCNC(=N)N)NC(=O)[C@@H]1CCCN1C(=O)[C@H](CC(C)C)NC(=O)[C@@H](N)Cc1ccccc1)C(=O)N[C@@H](CC(C)C)C(=O)N[C@@H](CCCNC(=N)N)C(=O)N[C@@H](CCCCN)C(=O)N[C@H](C(=O)N[C@H](C(=O)N[C@@H](CCCNC(=N)N)C(=O)N[C@@H](C)C(=O)N[C@@H](CC(C)C)C(N)=O)C(C)C)[C@@H](C)CC [Crabrolin-TR, FLPRILRKIVRAL-NH2] (H-FLPRILRKIVRAL-NH2) ?
16 µM

Which MBIC value belongs to CC[C@H](C)[C@H](NC(=O)[C@H](CCCNC(=N)N)NC(=O)[C@H](CCCNC(=N)N)NC(=O)[C@H](CC(C)C)NC(=O)[C@@H](N)CCCNC(=N)N)C(=O)N[C@@H](CC(C)C)C(=O)N[C@@H](CCCNC(=N)N)C(=O)N[C@@H](CCCCN)C(=O)N[C@H](C(=O)N[C@H](C(=O)N[C@@H](CCCNC(=N)N)C(=O)N[C@@H](CCCNC(=N)N)C(=O)N[C@@H](CC(C)C)C(N)=O)C(C)C)[C@@H](C)CC [Crabrolin-PR, RLRRILRKIVRRL-NH2] (H-RLRRILRKIVRRL-NH2) ?
32 µM

Which MBIC value belongs to CC[C@H](C)[C@H](NC(=O)[C@H](CC(C)C)NC(=O)[C@@H]1CCCN1C(=O)[C@H](CC(C)C)NC(=O)[C@@H](N)Cc1ccccc1)C(=O)N[C@@H](CC(C)C)C(=O)N[C@@H](CCCNC(=N)N)C(=O)N[C@@H](CCCCN)C(=O)N[C@H](C(=O)N[C@H](C(=O)N[C@H](C(=O)N[C@@H](C)C(=O)N[C@@H](CC(C)C)C(N)=O)[C@@H](C)O)C(C)C)[C@@H](C)CC [Crabrolin, FLPLILRKIVTAL-NH2] (H-FLPLILRKIVTAL-NH2) ?
32 µM

Which MBIC value belongs to CC[C@H](C)[C@H](NC(=O)[C@H](CCCNC(=N)N)NC(=O)[C@@H]1CCCN1C(=O)[C@H](CC(C)C)NC(=O)[C@@H](N)CCCNC(=N)N)C(=O)N[C@@H](CC(C)C)C(=O)N[C@@H](CCCNC(=N)N)C(=O)N[C@@H](CCCCN)C(=O)N[C@H](C(=O)N[C@H](C(=O)N[C@@H](CCCNC(=N)N)C(=O)N[C@@H](CCCNC(=N)N)C(=O)N[C@@H](CC(C)C)C(N)=O)C(C)C)[C@@H](C)CC [Crabrolin-AR, RLPRILRKIVRRL-NH2] (H-RLPRILRKIVRRL-NH2) ?
64 µM
